- Test System: Bile acid receptor (Homo sapiens)
- Sequence (whole entry): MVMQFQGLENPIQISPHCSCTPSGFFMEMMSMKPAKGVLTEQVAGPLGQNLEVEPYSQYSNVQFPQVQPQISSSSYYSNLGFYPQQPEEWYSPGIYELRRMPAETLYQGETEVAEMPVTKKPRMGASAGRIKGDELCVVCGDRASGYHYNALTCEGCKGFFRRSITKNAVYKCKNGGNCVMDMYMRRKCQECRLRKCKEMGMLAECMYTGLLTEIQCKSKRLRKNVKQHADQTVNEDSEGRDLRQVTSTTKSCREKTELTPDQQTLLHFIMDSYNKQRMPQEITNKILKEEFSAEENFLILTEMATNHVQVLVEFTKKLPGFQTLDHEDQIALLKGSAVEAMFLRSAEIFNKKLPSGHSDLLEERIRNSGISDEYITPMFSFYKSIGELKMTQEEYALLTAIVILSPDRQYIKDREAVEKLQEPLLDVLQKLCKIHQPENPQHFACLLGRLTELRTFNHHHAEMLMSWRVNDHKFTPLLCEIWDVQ
- Protocol Description: Increase in human FXR-mediated transient transcription of luciferase reporter gene transfected in african green monkey CV1 cells relative to GW-4064
- Format: cell-based
- Set-up: concentration or dose not given beside the values
- Experimental Context: CV-1
Measured Activity by item
Please state the figure in %; there is no need to write the unit.

// known answers, use as guide
Input Smiles	Activity, %
CC(C)c1onc(-c2c(Cl)cccc2Cl)c1COc1ccc2c(c1)ncn2Cc1cccc(C(=O)O)c1	40
CC(C)c1onc(-c2c(Cl)cccc2Cl)c1COc1ccc2c(ccn2S(=O)(=O)c2cccc(C(=O)O)c2)c1	63
CC(C)c1onc(-c2c(Cl)cccc2Cl)c1CNc1nc2ccc(-c3cccc(C(=O)O)c3)cc2s1	123

Note: attention shifts to another entry.
Please look at `CC(C)c1onc(-c2c(Cl)cccc2Cl)c1COc1ccc2c(Cc3cccc(C(=O)O)c3)c[nH]c2c1` and tell me its recorded Activity on Bile acid receptor (Homo sapiens).
32

====

- Test System: Bile acid receptor (Homo sapiens, UniProt Q96RI1)
- Protocol Description: Induction of SRC1 coactivator peptide binding to ligand binding domain of human FXR by FRET assay
Measured pEC50 by item
The meaning of pEC50 here: minus log10 of the concentration in molar units.

// known answers, use as guide
Input Smiles	Value Kind	Reported Value
CC(C)c1onc(-c2c(Cl)cccc2Cl)c1COc1ccc2cc(-c3cccc(C(=O)O)c3)sc2c1	pEC50	6.85
CC(C)c1onc(-c2c(Cl)cccc2Cl)c1COc1ccc2cc(-c3cccc(C(=O)O)c3)ccc2c1	pEC50	6.96
CC(C)c1onc(-c2c(Cl)cccc2Cl)c1COc1ccc2nc(-c3cccc(C(=O)O)c3)sc2c1	pEC50	6.39
CC(C)c1onc(-c2c(Cl)cccc2Cl)c1COc1ccc2c(c1)CN(c1cccc(C(=O)O)c1)C2=O	pEC50	6.17
CC(C)c1onc(-c2c(Cl)cccc2Cl)c1COc1ccc2c(ccn2C(=O)c2cccc(C(=O)O)c2)c1	pEC50	6.82

Please report pEC50 for the following molecule: `CC(C)c1onc(-c2c(Cl)cccc2Cl)c1COc1ccc2c(ccn2Cc2ccc(C(=O)O)cc2)c1`
6.80

Please report pEC50 for the following molecule: `CC(C)c1onc(-c2c(Cl)cccc2Cl)c1COc1ccc2cc(-c3ccc(C(=O)O)cc3)ccc2c1`
6.36

Please report pEC50 for the following molecule: `CC(C)c1onc(-c2c(Cl)cccc2Cl)c1COc1ccc2[nH]c(-c3cccc(C(=O)O)c3)cc2c1`
6.32

Please report pEC50 for the following molecule: `CC(C)c1onc(-c2c(Cl)cccc2Cl)c1COc1ccc2c(ccn2S(=O)(=O)c2cccc(C(=O)O)c2)c1`
6.80

Please report pEC50 for the following molecule: `CC(C)c1onc(-c2c(Cl)cccc2Cl)c1COc1ccc2[nH]cc(Cc3cccc(C(=O)O)c3)c2c1`
5.82

Please report pEC50 for the following molecule: `CC(C)c1onc(-c2c(Cl)cccc2Cl)c1COc1ccc2cc(-c3ccc(C(=O)O)cc3)sc2c1`
6.70

Please report pEC50 for the following molecule: `CC(C)c1onc(-c2c(Cl)cccc2Cl)c1COc1ccc2c(ccn2Cc2cccc(C(=O)O)c2)c1`
6.49

Please report pEC50 for the following molecule: `CC(C)c1onc(-c2c(Cl)cccc2Cl)c1CCc1nc2cc(-c3cccc(C(=O)O)c3)ccc2o1`
5.92

Please report pEC50 for the following molecule: `CC(C)c1onc(-c2c(Cl)cccc2Cl)c1COc1ccc2c(c1)CCN(c1cccc(C(=O)O)c1)C2=O`
6.15
